Test system: OVCAR-8 ovarian
protocol_details: NCI-60 one-dose screen, 48 h (100 = growth as untreated, 0 = no growth, -100 = all killed)
test_conditions: 10 µM unless noted
This is part of a sample that, as a whole, favours compounds with a hit. Of some 83,000 tested, about 20% had one in any assay.
measurement_name: growth (%)
One number for each entry, in %.

State recorded growth for all listed compounds.
1. Cc1cc([N+](=O)[O-])ccc1NC(=O)c1ccc2c(c1)nc(-c1ccccc1)n2C1CCCCC1
2. O=C(Nc1ncc(Cc2ccc(Cl)cc2)s1)C1=NCCCCN1
3. C#CCOC(=O)C(N)CSSCC(N)C(=O)O (stereo not given)
4. COc1cccc(-c2cc(-c3ccc(Nc4nc(Nc5ccc(Cl)cc5)nc(Nc5ccc(Cl)cc5)n4)cc3)nc(N)c2C#N)c1
5. Oc1c(Cl)cc(Cl)c2ccc(CN3CCNCC3)nc12

Result string:
1. 87.6
2. 106
3. 111
4. 48.9
5. 27.5

State recorded growth for all listed compounds.
1. CC(C)(C)n1cc(-c2ccnc(NCCNS(=O)(=O)c3ccc(C(F)(F)F)cc3)c2)c(-c2ccccc2)n1
2. CC(Cc1cccc2ccccc12)C(N)=O (stereo not given)
3. COc1ccc(C(=O)/C=C/c2ccc(Cl)cc2)cc1S(N)(=O)=O
4. CC(CN)[C@@H]1CC[C@]2(CO)CC[C@]3(C)[C@H](CC[C@@H]4[C@@]5(C)CCC(NCCO)C(C)(C)[C@@H]5CC[C@]43C)[C@@H]12 (stereo not given in full)
5. O=C(OCC(O)(CO)C(=O)NC12CC3CC(CC(C3)C1)C2)c1ccc(Cl)cc1 (stereo not given)
6. CC(C)(C)n1cc(-c2ccnc(NCCNS(=O)(=O)c3ccc(Br)cc3)c2)c(-c2cccc(O)c2)n1
7. O=C(/C=C/c1ccco1)Nc1ncc(Cc2ccc(F)cc2)s1
8. CC1(C)CC(=O)C2=C(C1)OC(C(=O)c1ccccc1)C2c1cccc(Oc2ccccc2)c1 (stereo not given)

Result string:
89.2
108
11.5
75.8
92.2
35.7
22.2
48.5
